test: Pharmacokinetics of ginsenosides after single oral RGE with or without amoxicillin treatment; assay type: in vivo, mice; settings: male, ICR, mouse, plasma; Amoxicillin 3 days pretreatment; single oral RGE 2 g/kg; read-out: Tmax
MEASUREMENT_LABEL: Tmax (h)
Entry rule: numbers only, all in h.

QUERY: What Tmax value was documented for this compound, CC(C)=CCC[C@](C)(O[C@@H]1O[C@H](CO[C@@H]2O[C@H](CO)[C@@H](O)[C@H](O)[C@H]2O)[C@@H](O)[C@H](O)[C@H]1O)[C@H]1CC[C@]2(C)[C@@H]1[C@H](O)C[C@@H]1[C@@]3(C)CC[C@H](O[C@@H]4O[C@H](CO)[C@@H](O)[C@H](O)[C@H]4O[C@@H]4O[C@H](CO)[C@@H](O)[C@H](O)[C@H]4O)C(C)(C)[C@@H]3CC[C@]12C [GRb1, 20(S)-ginsenosides Rb1] ?
RESULT: 8
